System: P93_24
Assay: qHTS profiling for inhibitors of Plasmodium falciparum proliferation (AID 504749); note: nearly all actives have a fitted effect of over 60% in size
Conditions: P. falciparum in erythrocytes, SYBR Green DNA, 72 h; series mostly up to 28.7 µM
Records with an inconclusive call do not appear. Active and inactive are the calls of the source. Calls come from the whole dose curve; as a rule, active = well fitted inhibition curve with a large enough effect; inconclusive = small, poorly fitted or top-dose-only effect; inactive = flat fitted curve, though single readings scatter.
Please reply with one of these outcomes: True for active, False for inactive

{"MOLECULE": "NC(=O)C1CC2(NC(=O)NC2=O)c2cc(F)ccc2O1 (stereo not drawn)", "CLASS_ASSIGNMENT": "False"}

In this assay, the call recorded for CC(=O)OC1C([N+]2(C)CCCCC2)C[C@H]2C3CC[C@H]4C[C@H](OC(C)=O)C([N+]5(C)CCCCC5)CC4(C)C3CCC12C (stereo partly drawn) was what? False

* * *

Assay: NFAT Signaling Pathway (AID 444);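 note: carbachol stimulus at about its EC50 of 1 µM final; % is set by controls: 0 for no effect and ±100 for the full control effect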
Conditions: Jurkat NFAT-bla M1, carbachol, beta-lactamase ratio, 5 h; at 17.2 µM (top of the series) unless noted
Records with an inconclusive call do not appear. Activity calls are given as the source filed them. Calls follow the shape of the dose curve; as a rule, active = well fitted curve in either direction with a large enough effect (not every such curve was filed as active); inconclusive = small, poorly fitted or top-dose-only effect, or another doubt; inactive = flat fitted curve, though single readings scatter.
OBSERVABLE: activity change, negative = inhibition

Some entries whose results are on file:
{"COMPOUND": "CC1(C)C/C(=C(/C#N)C(N)=O)CCO1", "activity change, negative = inhibition": "2.44% (inactive)"}
{"COMPOUND": "CC(NC(=O)Nc1nccs1)(C(F)(F)F)C(F)(F)F", "activity change, negative = inhibition": "15.9% (inactive)"}
{"COMPOUND": "Cc1cc(=O)oc(C)c1C(=O)NCCNC(=O)c1c(C)cc(=O)oc1C", "activity change, negative = inhibition": "6.33% (inactive)"}
{"COMPOUND": "Cc1ccc(/C=c2\\sc3n(c2=O)CN(c2ccc(Br)cc2)CN=3)o1", "activity change, negative = inhibition": "-11.3% (inactive)"}
{"COMPOUND": "Cc1nn(CC(=O)NCCN2CCOCC2)c(=O)c2ccccc12", "activity change, negative = inhibition": "20% (inactive)"}
{"COMPOUND": "CCOC(=O)CSC1=C(C#N)C(c2ccc3c(c2)OCO3)CC(=O)N1 (stereo unspecified)", "activity change, negative = inhibition": "4.11% (inactive)"}
{"COMPOUND": "O=C(c1ccc(N2C(=O)C3CC=C(Cl)CC3C2=O)cc1)N1CCCCC1 (stereo unspecified)", "activity change, negative = inhibition": "13% (inactive)"}
{"COMPOUND": "COc1cc([C@@H]2[C@H]3CN(C)CC=C3C(C#N)=C(N)C2(C#N)C#N)cc2c1OCO2", "activity change, negative = inhibition": "9.82% (inactive)"}

Please give the measured activity change, negative = inhibition for this compound: CCc1nc(SCc2cccnc2)c(C#N)cc1C -24.2% (inactive)

Same lookup for COc1ccc(C(=O)/C=C/Nc2cccc(C)n2)cc1OC , please. 22.7% (inactive)

Further, for CCCCn1c(C)cc2cc(O)ccc21 ? -5.83% (inactive)

* * *

Test system: CP238
Assay: qHTS profiling for inhibitors of Plasmodium falciparum proliferation (AID 504749); note: nearly all actives have a fitted effect of over 60% in size
Conditions: P. falciparum in erythrocytes, SYBR Green DNA, 72 h; series mostly up to 28.7 µM
Inconclusive results are not listed. Active and inactive are the calls of the source. The call rests on the fitted dose curve; in most records, active means well fitted inhibition curve with a large enough effect; inconclusive means small, poorly fitted or top-dose-only effect; inactive means flat fitted curve, though single readings scatter.
One label from this list, please: active, inactive

Previously resolved entries follow.
{"COMPOUND": "O=C1C(I)=CC(=C(c2cc(I)c(O)c(I)c2)c2ccccc2C(=O)O)C=C1I", "CLASS_ASSIGNMENT": "inactive"}
{"COMPOUND": "CC1(Cn2ccnn2)[C@H](C(=O)O)N2C(=O)C[C@H]2S1(=O)=O (stereo partly drawn)", "CLASS_ASSIGNMENT": "inactive"}
{"COMPOUND": "Cc1cnc(C(=O)O)cn1", "CLASS_ASSIGNMENT": "inactive"}
{"COMPOUND": "NC(=O)c1ncn(C2OC(CO)C(O)C2O)c1N (stereo not drawn)", "CLASS_ASSIGNMENT": "inactive"}
{"COMPOUND": "C#C[C@]1(O)CC[C@H]2[C@H]3[C@H](CC[C@@]21C)C1=C(CC(=O)CC1)C[C@@H]3C", "CLASS_ASSIGNMENT": "inactive"}
{"COMPOUND": "O=C1Oc2ccccc2C(=O)C1C(CC(O)c1ccc(-c2ccc(Br)cc2)cc1)c1ccccc1 (stereo not drawn)", "CLASS_ASSIGNMENT": "inactive"}
{"COMPOUND": "CC(C)(C)NC[C@H](O)CSc1nc(-c2ccc(C(N)=O)s2)cs1", "CLASS_ASSIGNMENT": "inactive"}
{"COMPOUND": "CCCCCCCCCCCC(=O)OCC(O)C1OCC(O)C1O (stereo not drawn)", "CLASS_ASSIGNMENT": "inactive"}
{"COMPOUND": "CCCC(=O)Nc1c(I)cc(I)c(C[C@H](CC)C(=O)O)c1I", "CLASS_ASSIGNMENT": "inactive"}
{"COMPOUND": "C[C@H]1OC(OC2C(O)[C@@H](O)C(OC3C(O)[C@@H](O)C(O)O[C@@H]3CO)O[C@@H]2CO)[C@H](O)C(O)C1N[C@H]1C=C(CO)[C@@H](O)[C@H](O)C1O (stereo partly drawn)", "CLASS_ASSIGNMENT": "inactive"}

Outcome logged for CC[C@@H]1/C=C(\C)C[C@H](C)C[C@H](OC)[C@H]2O[C@@](O)(C(=O)C(=O)N3CCCC[C@H]3C(=O)O[C@H](/C(C)=C/[C@@H]3CC[C@H](Cl)[C@H](OC)C3)[C@H](C)[C@@H](O)CC1=O)[C@H](C)C[C@@H]2OC in this assay: inactive

# repeat for Nc1nc(/C(=C/CC(=O)O)C(=O)NC2C(=O)N3C(C(=O)O)=CCSC23)cs1 (stereo not drawn) inactive

Same thing, different compound: C[C@]12CC[C@@H]3c4ccc(O)cc4C[C@@H](CCCCCCCCCS(=O)CCCC(F)(F)C(F)(F)F)C3[C@@H]1CC[C@@H]2O (stereo partly drawn) active
